Kindly state percentage damage caused to the plant, five point scale, AVEFA for each of the entries shown.
- Test system: Avena fatua (AVEFA)
- EXPERIMENTAL DETAILS: Pre-emergence herbicidal glasshouse test
- Type: in vivo
- MEASUREMENT SETUP: 250 g/Ha, evaluated after 13 days

Inquiry: Request the reported percentage damage caused to the plant, five point scale, AVEFA associated with CC#Cc1cc(C)c(C2C(=O)CC3(CCN(C(=O)C(C)=NOCC#N)CC3)CC2=O)c(C)c1
Reply text: 1 (1=0-19%)

Inquiry: Request the reported percentage damage caused to the plant, five point scale, AVEFA associated with CC#Cc1cc(C)c(C2C(=O)CC3(CCN(C(=O)/C(C)=N/OC4CCOCC4)CC3)CC2=O)c(C)c1
Reply text: 2 (2=20-39%)

Inquiry: Request the reported percentage damage caused to the plant, five point scale, AVEFA associated with CC#Cc1cc(C)c(C2C(=O)CC3(CCN(C(=O)/C(C)=N/O)CC3)CC2=O)c(C)c1
Reply text: 5 (5=80-100%)

Inquiry: Request the reported percentage damage caused to the plant, five point scale, AVEFA associated with CC#Cc1cc(C)c(C2C(=O)CC3(CCN(C(=O)C(C)=NN(C)C)CC3)CC2=O)c(C)c1
Reply text: 5 (5=80-100%)

Inquiry: Request the reported percentage damage caused to the plant, five point scale, AVEFA associated with CC#Cc1cc(C)c(C2C(=O)CC3(CCN(C(=O)C(C)=NOC)CC3)CC2=O)c(C)c1
Reply text: 5 (5=80-100%)

Inquiry: Request the reported percentage damage caused to the plant, five point scale, AVEFA associated with CC#Cc1cc(C)c(C2C(=O)CC3(CCN(C(=O)/C(C)=N\O)CC3)CC2=O)c(C)c1
Reply text: 5 (5=80-100%)

Inquiry: Request the reported percentage damage caused to the plant, five point scale, AVEFA associated with CC#Cc1cc(C)c(C2C(=O)CC3(CCN(C(=O)/C=N/OC)CC3)CC2=O)c(C)c1
Reply text: 5 (5=80-100%)

Inquiry: Request the reported percentage damage caused to the plant, five point scale, AVEFA associated with CC#Cc1cc(C)c(C2C(=O)CC3(CCN(C(=O)C(C)=NOCC)CC3)CC2=O)c(C)c1
Reply text: 5 (5=80-100%)
